test system: HUVEC; test: Antiinflammatory activity in human HUVEC cells assessed as inhibition of LPS-induced E-selectin mRNA expression at 5 uM for 10 mins measured after 4 hrs of LPS challenge by Q-PCR analysis; type: functional, cell-based
The source made the active and inactive calls. No cut-off for these calls is given here.
Assay readout: inhibition

Example results:
1. C/C(=C/CC[C@@H](C)[C@H]1C[C@H](O)[C@@]2(C)C3=CC[C@H]4C(C)(C)C(=O)CC[C@]4(C)C3=CC[C@]12C)C(=O)O [GANODERIC ACID TR]    Active
2. CC(C)[C@@H](C)/C=C/[C@@H](C)[C@H]1CC[C@@H]2[C@]1(C)CC[C@H]1[C@]23C=C[C@]2(C[C@@H](O)CC[C@]12C)OO3 [ERGOSTEROL PEROXIDE]    Active
3. C[C@H](CC[C@H](O)C(C)(C)O)[C@H]1CC[C@@]2(C)C3=C(CC[C@]12C)[C@@]1(C)CCC(=O)C(C)(C)[C@@H]1CC3=O [LUCIDUMOL A]    Active
4. C[C@H](CCC=C(CO)CO)[C@H]1CC[C@@]2(C)C3=CC[C@H]4C(C)(C)C(=O)CC[C@]4(C)C3=CC[C@]12C [GANODERIOL F]    Active

Let us move to another entry and its inhibition.
Query: I am curious: what inhibition value has been reported for C[C@H](CC[C@H](O)[C@](C)(O)CO)[C@H]1CC[C@@]2(C)C3=CC[C@H]4C(C)(C)C(=O)CC[C@]4(C)C3=CC[C@]12C [GANODERMANONTRIOL] ?
Reply: Active

---

Known pEC50 of a selection of compounds
biological target: Bile acid receptor/Retinoic acid receptor RXR-alpha (Mus musculus, UniProt P28700+Q60641); test: Agonist activity at full length mouse FXR/RXRalpha expressed in human HEK293 cells assessed as induction of transcriptional activity after 18 hrs by dual luciferase reporter gene assay
Sequence (P28700 whole entry): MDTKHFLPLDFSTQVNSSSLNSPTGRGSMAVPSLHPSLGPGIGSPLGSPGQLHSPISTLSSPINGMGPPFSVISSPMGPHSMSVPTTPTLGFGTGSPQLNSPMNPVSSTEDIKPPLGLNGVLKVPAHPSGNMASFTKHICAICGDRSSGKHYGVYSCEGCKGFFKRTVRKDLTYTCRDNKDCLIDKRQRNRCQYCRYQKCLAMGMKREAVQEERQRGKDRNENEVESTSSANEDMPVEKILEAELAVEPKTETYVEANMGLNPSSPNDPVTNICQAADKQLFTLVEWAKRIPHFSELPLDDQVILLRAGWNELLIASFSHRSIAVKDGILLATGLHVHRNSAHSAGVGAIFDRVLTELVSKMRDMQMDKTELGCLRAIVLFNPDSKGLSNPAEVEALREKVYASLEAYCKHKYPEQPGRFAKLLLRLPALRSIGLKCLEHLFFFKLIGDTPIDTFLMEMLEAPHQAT
Sequence (Q60641 whole entry): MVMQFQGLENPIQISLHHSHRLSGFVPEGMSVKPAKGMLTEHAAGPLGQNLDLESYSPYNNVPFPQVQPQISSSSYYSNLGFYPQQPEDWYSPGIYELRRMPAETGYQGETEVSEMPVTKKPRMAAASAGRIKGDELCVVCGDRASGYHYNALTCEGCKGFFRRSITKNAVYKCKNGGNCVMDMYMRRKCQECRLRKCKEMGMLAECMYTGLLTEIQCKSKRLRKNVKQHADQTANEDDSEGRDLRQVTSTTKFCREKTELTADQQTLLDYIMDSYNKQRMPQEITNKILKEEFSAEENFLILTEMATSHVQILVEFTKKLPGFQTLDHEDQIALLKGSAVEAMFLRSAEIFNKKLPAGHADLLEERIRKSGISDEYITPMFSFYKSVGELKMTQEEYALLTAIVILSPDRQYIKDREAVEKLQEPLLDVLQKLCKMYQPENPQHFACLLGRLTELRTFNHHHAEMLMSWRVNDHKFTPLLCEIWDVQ
Convention used: pEC50 is expressed as -log10 of the molar concentration.

The cases that follow already have their pEC50 on record.
1) C[C@H](CC[C@H](O)[C@](C)(O)CO)[C@H]1CC[C@@]2(C)C3=CC[C@H]4C(C)(C)C(=O)CC[C@]4(C)C3=CC[C@]12C    5.60
2) CC(C)[C@@H](C)/C=C/[C@@H](C)[C@H]1CC[C@@H]2[C@]1(C)CC[C@H]1[C@]23C=C[C@]2(C[C@@H](O)CC[C@]12C)OO3 [ERGOSTEROL PEROXIDE]    6.07

Now let's try a different one.
Query: Request the reported pEC50 associated with C[C@H](CCC=C(CO)CO)[C@H]1CC[C@@]2(C)C3=CC[C@H]4C(C)(C)C(=O)CC[C@]4(C)C3=CC[C@]12C
Reply: 5.30
